// data source = patent US11236055B2

Molecular target: mouse TGR5 receptor (Mus musculus, UniProt Q80SS6)
Construct: expressed in transfected cells; host or cells: HEK293-EBNA (293 c18, ATCC CRL10852), Hygromycin B selection
Sequence (Q80SS6 whole entry): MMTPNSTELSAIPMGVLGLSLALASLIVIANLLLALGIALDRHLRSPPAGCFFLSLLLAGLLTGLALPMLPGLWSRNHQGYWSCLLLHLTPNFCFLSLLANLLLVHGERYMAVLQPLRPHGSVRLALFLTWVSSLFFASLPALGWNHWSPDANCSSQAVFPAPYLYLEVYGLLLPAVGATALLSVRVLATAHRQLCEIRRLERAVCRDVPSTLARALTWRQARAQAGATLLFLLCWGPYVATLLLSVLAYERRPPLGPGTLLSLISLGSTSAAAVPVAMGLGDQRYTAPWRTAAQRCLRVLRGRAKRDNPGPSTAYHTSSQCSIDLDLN
Assay: Mouse TGR5 cAMP production assay (HTRF, Cisbio cAMP HiRange)
Format: cell-based
Conditions: HEK293-EBNA cells overexpressing mouse TGR5, HTRF cAMP HiRange; coded A-D
pEC50: −log10 of the molar value.
Reported Endpoint: pEC50

> print(dat)
                                    molecule  reported.endpoint  observed.value
 1  Cc1cnccc1-c1cccc(CCN(CCCNC(=O)NCS(=O)(=O)O)S(=O)(=O)c2cccc(Cl)c2C)c1 [Compound 29AD]              pEC50    4.52 to 6.00
 2  CC[C@H](NS(=O)(=O)c1cccc(C(F)(F)F)c1)c1cccc(-c2ccncc2C)c1 [Compound 5AY]              pEC50    6.00 to 7.00
 3  Cc1cnccc1-c1cccc(C(CCCCN)NS(=O)(=O)c2ccccc2C(F)(F)F)c1 (stereo not drawn) [Compound 24AA]              pEC50    6.00 to 7.00
 4  CCc1cnccc1-c1cccc([C@H](C)N(CCCC(=O)NCCS(=O)(=O)O)S(=O)(=O)c2ccccc2C)c1 [Compound 20AR]              pEC50          > 7.00
 5  Cc1cnccc1-c1cccc([C@H](C)N(CCC(=O)NCCS(=O)(=O)O)S(=O)(=O)c2cccc(Cl)c2C)c1 [Compound 20BV]              pEC50          > 7.00
 6  Cc1cnccc1-c1cccc(CCNS(=O)(=O)c2ccccc2C(F)(F)F)c1 [Compound 5BD]              pEC50    4.52 to 6.00
 7  Cc1cnccc1-c1cccc(C(C)(C)N(CCCC(=O)NCCNC(=O)OC(C)(C)C)S(=O)(=O)c2cccc(Cl)c2C)c1 [Compound 20AV]              pEC50    6.00 to 7.00
 8  Cc1cnccc1-c1cccc([C@H](C)N(CCCC(=O)N[C@@H](CO)C(=O)O)S(=O)(=O)c2cccc(Cl)c2C)c1 [Compound 21AI]              pEC50    6.00 to 7.00
 9  Cc1cnccc1-c1cccc([C@H](C)N(CCCCO)S(=O)(=O)c2cccc(Cl)c2C)c1 [Compound 39]              pEC50          > 7.00
10  Cc1cnccc1-c1cccc([C@H](CCCC#N)NS(=O)(=O)c2cccc(Cl)c2C)c1 [Compound 2BZ]              pEC50          > 7.00
11  CCc1cnccc1-c1cc(O)cc(C(C)(C)NS(=O)(=O)c2ccccc2C(F)(F)F)c1 [Compound 22]              pEC50          > 7.00
12  CCc1cnccc1-c1cccc([C@H](C)N(CCCCNC(=O)[C@@H](N)CS(=O)(=O)O)S(=O)(=O)c2cccc(Cl)c2C)c1 [Compound 31AD]              pEC50          > 7.00
13  Cc1cnccc1-c1cccc(C(C)(C)N(CCCNS(=O)(=O)CCNC(=N)N)S(=O)(=O)c2cccc(Cl)c2C)c1 [Compound 27AC]              pEC50    6.00 to 7.00
14  Cc1cnccc1-c1cccc([C@H](C)N(CCCC(=O)NCCS(=O)(=O)NCC(=O)O)S(=O)(=O)c2ccccc2C(F)(F)F)c1 [Compound 20BJ]              pEC50          > 7.00
15  CCOC(=O)CCCN(C(C)(C)c1cccc(-c2ccncc2C)c1)S(=O)(=O)c1ccccc1C(F)(F)F [Compound 14A]              pEC50    6.00 to 7.00
